test_target: Mu-type opioid receptor (Homo sapiens)
Sequence (P35372 whole entry): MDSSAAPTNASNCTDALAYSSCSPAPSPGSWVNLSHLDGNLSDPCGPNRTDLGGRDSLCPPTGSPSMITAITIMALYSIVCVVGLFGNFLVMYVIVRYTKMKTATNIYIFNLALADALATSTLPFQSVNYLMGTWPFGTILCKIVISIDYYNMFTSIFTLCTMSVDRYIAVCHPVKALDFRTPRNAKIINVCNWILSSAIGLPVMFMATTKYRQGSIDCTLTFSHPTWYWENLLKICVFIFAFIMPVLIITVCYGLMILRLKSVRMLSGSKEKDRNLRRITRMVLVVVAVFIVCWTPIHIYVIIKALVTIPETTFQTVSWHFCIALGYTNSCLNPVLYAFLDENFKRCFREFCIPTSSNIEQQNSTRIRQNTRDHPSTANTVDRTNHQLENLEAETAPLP
condition_info: at 100 µM
Description: Intrinsic activity at human cloned mu opioid receptor at 100 uM by [35S]GTPgammaS binding assay relative to DAMGO
assay_metric: Emax

1) COCCN(C(=O)Cc1ccc(Cl)cc1)C1c2ccccc2C=CC1N1CCN(c2ccccc2)CC1 (racemic) = 0%
2) COCCN(C(=O)c1sccc1Cl)C1c2ccccc2C=CC1N1CCN(c2ccccc2)CC1 (racemic) = 0%
3) COCCN(C(=O)c1ccc(Cl)c(Cl)c1)C1c2ccccc2C=CC1N1CCN(c2ccccc2)CC1 (racemic) = 60%
4) C[C@@]12CCCCC[C@@H](Cc3ccc(O)cc31)[C@@H]2N = 6%
5) COCCN(C(=O)COCc1ccccc1)C1c2ccccc2C=CC1N1CCN(c2ccccc2)CC1 (racemic) = 10%
6) COCCN(C(=O)Cc1cccc(OC)c1)C1c2ccccc2C=CC1N1CCN(c2ccccc2)CC1 (racemic) = 10%
